- assay_overview: Particle sizing of micronised and conditioned glycopyrrolate batches, Example 7
- Type: physicochemical
- condition: micronised drug powder
assay_metric: D90 (μm)

Use the examples below as a reference point.
- C[N+]1(C)CCC(OC(=O)C(O)(c2ccccc2)C2CCCC2)C1.[Br-] (stereo not drawn) [Formulation A3]: 9.78
- C[N+]1(C)CCC(OC(=O)C(O)(c2ccccc2)C2CCCC2)C1.[Br-] (stereo not drawn) [Formulation A1]: 3.68
- C[N+]1(C)CCC(OC(=O)C(O)(c2ccccc2)C2CCCC2)C1.[Br-] (stereo not drawn) [Formulation C2]: 7.84
- C[N+]1(C)CCC(OC(=O)C(O)(c2ccccc2)C2CCCC2)C1.[Br-] (stereo not drawn) [Formulation E1]: 4.88
- C[N+]1(C)CCC(OC(=O)C(O)(c2ccccc2)C2CCCC2)C1.[Br-] (stereo not drawn) [Formulation C3]: 8.23
- C[N+]1(C)CCC(OC(=O)C(O)(c2ccccc2)C2CCCC2)C1.[Br-] (stereo not drawn) [Formulation E2]: 7.08
- C[N+]1(C)CCC(OC(=O)C(O)(c2ccccc2)C2CCCC2)C1.[Br-] (stereo not drawn) [Formulation A2]: 10.02

A = C[N+]1(C)CCC(OC(=O)C(O)(c2ccccc2)C2CCCC2)C1.[Br-] (stereo not drawn) [Formulation E3]
B = C[N+]1(C)CCC(OC(=O)C(O)(c2ccccc2)C2CCCC2)C1.[Br-] (stereo not drawn) [Formulation C1]
Query block: Given the listed items, does A or B have the lesser reported D90? Provide the label of your selected option as the answer.
Result block: B
(B: 4.83 μm, A: 7.85 μm)

###

- assay_overview: Loss on drying and water activity of micronised batches
- Assay type: physicochemical
assay_metric: Loss on drying (%)

Use the examples below as a reference point.
- C[N+]1(C)CCC(OC(=O)C(O)(c2ccccc2)C2CCCC2)C1.[Br-] (stereo not shown) [Remicronised Batch C]: 0.5
- C[N+]1(C)CCC(OC(=O)C(O)(c2ccccc2)C2CCCC2)C1.[Br-] (stereo not shown) [Batch A]: 0.7

A = C[N+]1(C)CCC(OC(=O)C(O)(c2ccccc2)C2CCCC2)C1.[Br-] (stereo not shown) [Batch B]
B = C[N+]1(C)CCC(OC(=O)C(O)(c2ccccc2)C2CCCC2)C1.[Br-] (stereo not shown) [Batch C]
Query block: Given the listed items, does A or B have the lesser reported Loss on drying? Provide the label of your selected option as the answer.
Result block: B
(B: 0.4%, A: 0.6%)

###

- assay_overview: Observation of bulk powder after sealed storage
- Type: physicochemical
- condition: sealed storage for several weeks
- From the text: Batches of micronised glycopyrrolate were obtained and, following sealed storage for several weeks, the physical changes of the material from fine cohesive powders to solid agglomerates were observed. The following section summarises the tests conducted on reported batches of glycopyrrolate received following micronisation: […]
assay_metric: state of bulk powder on storage

• C[N+]1(C)CCC(OC(=O)C(O)(c2ccccc2)C2CCCC2)C1.[Br-] (stereo not shown) [Batch C] = large hard lumps
• C[N+]1(C)CCC(OC(=O)C(O)(c2ccccc2)C2CCCC2)C1.[Br-] (stereo not shown) [Batch B] = large hard lumps

###

- assay_overview: MSLI test of formulations made from micronisation trial batches, Example 7
- Format: physicochemical
- condition: T = 0; 20 μg dose in 25 mg powder, 0.15% magnesium stearate, gelatin capsules
assay_metric: % FPD (%)

* C[N+]1(C)CCC(OC(=O)C(O)(c2ccccc2)C2CCCC2)C1.[Br-] (stereo not shown) [Formulation A3] | 34.5
* C[N+]1(C)CCC(OC(=O)C(O)(c2ccccc2)C2CCCC2)C1.[Br-] (stereo not shown) [Formulation C3] | 39.9
* C[N+]1(C)CCC(OC(=O)C(O)(c2ccccc2)C2CCCC2)C1.[Br-] (stereo not shown) [Formulation E1] | 39.9
* C[N+]1(C)CCC(OC(=O)C(O)(c2ccccc2)C2CCCC2)C1.[Br-] (stereo not shown) [Formulation C1] | 39.9
* C[N+]1(C)CCC(OC(=O)C(O)(c2ccccc2)C2CCCC2)C1.[Br-] (stereo not shown) [Formulation E3] | 38.7
* C[N+]1(C)CCC(OC(=O)C(O)(c2ccccc2)C2CCCC2)C1.[Br-] (stereo not shown) [Formulation C2] | 39.2
* C[N+]1(C)CCC(OC(=O)C(O)(c2ccccc2)C2CCCC2)C1.[Br-] (stereo not shown) [Formulation A1] | 34.7

###

- assay_overview: Sympatec sizing of micronised glycopyrrolate batches, after micronisation and on storage
- Type: physicochemical
- condition: following micronisation
assay_metric: Sympatec sizing d10 (μm)

Use the examples below as a reference point.
• C[N+]1(C)CCC(OC(=O)C(O)(c2ccccc2)C2CCCC2)C1.[Br-] (stereo not shown) [Batch B] = 1.0
• C[N+]1(C)CCC(OC(=O)C(O)(c2ccccc2)C2CCCC2)C1.[Br-] (stereo not shown) [Batch C] = 0.8

A = C[N+]1(C)CCC(OC(=O)C(O)(c2ccccc2)C2CCCC2)C1.[Br-] (stereo not shown) [Batch A]
B = C[N+]1(C)CCC(OC(=O)C(O)(c2ccccc2)C2CCCC2)C1.[Br-] (stereo not shown) [Remicronised Batch C]
Query block: Of A and B , which one carries the higher reported Sympatec sizing d10? Provide the label of your selected option as the answer.
Result block: B
